combination Emax overview
- System: HMV-II (Melanoma)
- Assay Overview: combination Emax (second highest fraction inhibited in the dose matrix, 72 h); higher = more inhibition; extreme values may be limits of the assay
Lab note: jot down the number only; don't add units.

As a guide, the following entries are already answered.
| Compound | combination Emax |
| --- | --- |
| C=CCn1c(=O)c2cnc(Nc3ccc(N4CCN(C)CC4)cc3)nc2n1-c1cccc(C(C)(C)O)n1 [AZD1775] + Nc1ccn([C@@H]2O[C@H](CO)[C@@H](O)C2(F)F)c(=O)n1 [Gemcitabine] (first compound max 1 µM, partner max 0.3 µM) | 0.632 |
| O=C(c1cc(Cc2n[nH]c(=O)c3ccccc23)ccc1F)N1CCN(C(=O)C2CC2)CC1 [Olaparib] + Cc1c2c(nn1C)CSCc1cc(n(C)n1)CSc1cc(c3ccccc3c1)OCCCc1c(C(=O)O)n(C)c3c-2c(Cl)ccc13 [AZD5991] (first compound max 10 µM, 7x7, partner max 1 µM) | 0.0925 |

Lab note: next compound to report on.
**Q:** combination Emax lookup needed for Cn1cnc2c(F)c(Nc3ccc(Br)cc3Cl)c(C(=O)NOCCO)cc21 [Selumetinib] + CCN(CCO)CCCOc1ccc2c(Nc3cc(CC(=O)Nc4cccc(F)c4)[nH]n3)ncnc2c1 [AZD2811] (first compound max 10 µM, 7x7, partner max 1 µM) , thanks.
**A:** 0.717
